TEST: chemical genetic growth profiling, strain panel (AID 1159580);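 note: tested at 20 µM; growth read once vehicle control cultures reached saturation at 30 °C; 1 = growth at the plate median or of vehicle wells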
EXPERIMENTAL_CONTEXT: S. cerevisiae deletion strains, growth OD, locus YLR113W, strain HOG1, stronger effect = lower value
The whole screen tested about 5,500 compounds, of which about 2,000 (36%) were called active. Not shown: some 18% with an inconclusive outcome. The list shows a part of the results.
Classify: satisfied when normalized growth is strictly less than 1; not satisfied when normalized growth is not.

| COMPOUND | DISCRETE_LABEL |
| --- | --- |
| CN(C)c1ccc2nc3ccc(=[N+](C)C)cc-3sc2c1 | not satisfied |
| O=c1c(O)c(-c2ccc(O)c(O)c2)oc2c(O[C@@H]3O[C@H](CO)[C@H](O)[C@@H](O)[C@H]3O)c(O)cc(O)c12 | satisfied |
| COc1ccc(-c2cc(=O)c3c(O)cc(O[C@@H]4O[C@H](CO[C@H]5O[C@H](C)[C@@H](O)[C@H](O)[C@@H]5O)[C@@H](O)[C@H](O)[C@H]4O)cc3o2)cc1O | not satisfied |
| Oc1c(Br)cc(Br)cc1C=Nc1ccc(Sc2ccccc2)nc1Sc1ccccc1 | satisfied |
| C[C@@H]1O[C@@H](OC[C@H]2OC(Oc3c(-c4ccc(O)c(O)c4)oc4cc(O)cc(O)c4c3=O)[C@H](O)[C@@H](O)[C@@H]2O)[C@H](O)[C@H](O)[C@H]1O (stereo partly drawn) | not satisfied |
| Oc1c(Br)cc(Br)cc1/C=N\n1cnnc1 | satisfied |

====

Listed compounds paired with reported normalized growth
TEST: chemical genetic growth profiling, strain panel (AID 1159580)
EXPERIMENTAL_CONTEXT: S. cerevisiae deletion strains, growth OD, locus YML032C, strain rad52, stronger effect = lower value
The whole screen tested about 5,500 compounds, of which about 2,000 (36%) were called active. Roughly 18% stayed inconclusive and do not appear here. The list shows a part of the results.

| COMPOUND | normalized growth |
| --- | --- |
| CCCCOc1cc(C(=O)NCCN(CC)CC)c2ccccc2n1 | 0.989 |
| COc1c(C(C)C)oc2cc3oc(=O)ccc3cc12 | 0.855 |
| CC(=O)OCC1=C(C(=O)O)N2C(=O)[C@@H](NC(=O)Cc3cccs3)[C@H]2SC1 | 0.98 |
| CC1O[C@@H](Oc2c(-c3ccc(O)c(O)c3)oc3cc(O)cc(O)c3c2=O)[C@H](O)[C@H](O)[C@H]1O (stereo partly specified) | 0.99 |
| COc1cc2occc2c2oc(=O)ccc12 | 0.836 |
| CO[C@@]1(NC(=O)C(C(=O)O)c2ccc(O)cc2)C(=O)N2C(C(=O)O)=C(CSc3nnnn3C)CO[C@@H]21 (stereo partly specified) | 1.03 |
| CCc1cc(C(N)=S)ccn1 | 0.973 |
| NS(=O)(=O)c1cc(C2(O)NC(=O)c3ccccc32)ccc1Cl (stereo unspecified) | 1.02 |
| COc1cc(OC)c2ccc(=O)oc2c1 | 0.982 |
| O=c1c(O)c(-c2ccc(O)cc2O)oc2cc(O)cc(O)c12 | 1 |
| C[C@@H]1O[C@@H](OC[C@H]2OC(Oc3c(-c4ccc(O)c(O)c4)oc4cc(O)cc(O)c4c3=O)[C@H](O)[C@@H](O)[C@@H]2O)[C@H](O)[C@H](O)[C@H]1O (stereo partly specified) | 1.03 |

====

normalized growth overview
TEST: chemical genetic growth profiling, strain panel (AID 1159580);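 note: tested at 20 µM; growth read once vehicle control cultures reached saturation at 30 °C; 1 = growth at the plate median or of vehicle wells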
EXPERIMENTAL_CONTEXT: S. cerevisiae deletion strains, growth OD, locus YJL154C, strain vps35, stronger effect = lower value
The whole screen tested about 5,500 compounds, of which about 2,000 (36%) were called active. About 18% were inconclusive and are not listed. Some of the results follow.
REPORTED_ENDPOINT: normalized growth

| MOLECULE | RESULT |
| --- | --- |
| NC(=O)CN1CCCC1=O | 0.987 (inactive) |
| CCc1cc(C(N)=S)ccn1 | 0.995 (inactive) |
| C[C@]12C=CC(=O)C=C1CCC1C2[C@@H](O)C[C@@]2(C)C1CC[C@]2(O)C(=O)COP(=O)(O)O (stereo not given in full) | 1.01 (inactive) |
| CC1CC[C@]2(NC1)O[C@H]1CC3C4CC[C@H]5C[C@@H](O)CC[C@]5(C)C4CC[C@]3(C)[C@H]1[C@@H]2C (stereo not given in full) | 0.156 (active) |
| CC(=O)O[C@]1(C(C)=O)CCC2C3C=C(Cl)C4=CC(=O)[C@@H]5C[C@@H]5[C@]4(C)C3CC[C@@]21C (stereo not given in full) | 1.01 (inactive) |

====

TEST: chemical genetic growth profiling, strain panel (AID 1159580);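 note: tested at 20 µM; growth read once vehicle control cultures reached saturation at 30 °C; 1 = growth at the plate median or of vehicle wells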
EXPERIMENTAL_CONTEXT: S. cerevisiae deletion strains, growth OD, locus YAL026C, strain drs2, stronger effect = lower value
In all, about 5,500 compounds went through this assay and about 2,000 (36%) were called active. Not shown: some 18% with an inconclusive outcome. The list shows a part of the results.
Listed here are compounds together with their documented normalized growth.

| COMPOUND | normalized growth |
| --- | --- |
| CC(=O)O[C@@H]1CC2C(C)(C)C(=O)C=C[C@]2(C)C2CC[C@@]3(C)[C@H](c4ccoc4)OC(=O)[C@H]4O[C@]43[C@@]21C (some centres undefined) | 0.99 |
| NC(=O)CN1CCCC1=O | 0.988 |
| COc1cc(OC)c2c(=O)c(OC)c(-c3ccc(OC)c(OC)c3)oc2c1 | 1.02 |
| C[C@@H]1O[C@@H](OC[C@H]2OC(Oc3c(-c4ccc(OCCO)c(OCCO)c4)oc4cc(OCCO)cc(O)c4c3=O)[C@H](O)[C@@H](O)[C@@H]2O)[C@H](O)[C@H](O)[C@H]1O (some centres undefined) | 0.973 |
| COc1ccc(Cl)cc1C(=O)NCCc1ccc(S(=O)(=O)NC(=O)NC2CCCCC2)cc1 | 1 |
| NC(=O)c1ncn([C@@H]2O[C@H](CO)[C@@H](O)[C@H]2O)n1 | 0.995 |
| COC1=CC(=O)C(C(=O)c2ccccc2)=CC1=O | 0.992 |
| O=c1c(O)c(-c2ccc(O)c(O)c2)oc2c(O)c(O)cc(O)c12 | 0.954 |
| C[C@@H]([C@H](O)c1ccccc1)N(C)C | 1.01 |
| Cc1ccccc1OCC(O)CO (centres undefined) | 0.974 |
| COc1ccc(-c2cc(=O)c3c(O)cc(O[C@H]4O[C@H](CO[C@@H]5O[C@@H](C)[C@H](O)[C@@H](O)[C@H]5O)[C@@H](O)[C@H](O)[C@H]4O)cc3o2)cc1 | 1.03 |
| C=CC1C2=CCOC(=O)C2=COC1OC1OC(CO)C(O)C(O)C1O (centres undefined) | 1.02 |
| CCCCOc1cc(C(=O)NCCN(CC)CC)c2ccccc2n1 | 0.986 |
| CCCCC1C(=O)N(c2ccccc2)N(c2ccc(O)cc2)C1=O (centres undefined) | 0.998 |
| CNC(=O)Oc1cccc2c1OC(C)(C)O2 | 1 |
| C[C@]12C=CC(=O)C=C1CCC1C2[C@@H](O)C[C@@]2(C)C1CC[C@]2(O)C(=O)COP(=O)(O)O (some centres undefined) | 1 |
| CNC(C)C(O)c1ccccc1 (centres undefined) | 0.997 |
| CC1(C)C2CC(=O)[C@]3(C)C(CC[C@@]4(C)[C@H](c5ccoc5)OC(=O)[C@H]5O[C@]543)[C@@]2(C)C(=O)C[C@H]1O (some centres undefined) | 1 |
| COc1ccc(-c2oc3c(CC=C(C)C)c(O[C@@H]4O[C@H](CO)[C@@H](O)[C@H](O)[C@H]4O)cc(O)c3c(=O)c2O[C@@H]2O[C@@H](C)[C@H](O)[C@@H](O)[C@H]2O)cc1 | 1.05 |

====

TEST: chemical genetic growth profiling, strain panel (AID 1159580);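 note: tested at 20 µM; growth read once vehicle control cultures reached saturation at 30 °C; 1 = growth at the plate median or of vehicle wells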
EXPERIMENTAL_CONTEXT: S. cerevisiae deletion strains, growth OD, locus YML032C, strain rad52
Among all 5,500 compounds or so, about 2,000 (36%) were called active. Roughly 18% stayed inconclusive and do not appear here. Rule as the data show it: active = normalized growth mostly below about 0.91 (no sharp cut-off); inconclusive = no clear call, values can overlap the other calls; inactive = mostly above about 0.92. This is one part of the list.
Classes used: active, inactive

| COMPOUND | DISCRETE_LABEL |
| --- | --- |
| CN1C(C)(C)CCCC1(C)C | inactive |
| COc1ccc(-c2cc(=O)c3c(O)cc(O[C@H]4O[C@H](CO[C@@H]5O[C@@H](C)[C@H](O)[C@@H](O)[C@H]5O)[C@@H](O)[C@H](O)[C@H]4O)cc3o2)cc1 | inactive |
| CC1(C)C2CC(=O)[C@]3(C)C(CC[C@@]4(C)[C@H](c5ccoc5)OC(=O)C5OC543)[C@@]2(C)[C@@H](O)C[C@H]1O (some centres not stated) | inactive |
| CC1(C)C(=O)C=C[C@@]2(C)C1C[C@@H](O)[C@]1(C)C2CC[C@@]2(C)[C@H](c3ccoc3)OC(=O)[C@H]3O[C@]321 (some centres not stated) | inactive |
| CCCCCc1c2c(cc(O)c1C(=O)O)OC(=O)c1c(cc(OC)cc1C(=O)CCCC)O2 | inactive |
| COC(=O)[C@]1(C)CCC[C@]2(C)c3ccc(C(C)C)cc3C(=O)CC12 (some centres not stated) | inactive |
| Oc1ccc2c(c1)OCC1(O)Cc3cc(O)c(O)cc3C21 (configuration not stated) | inactive |
| Oc1cc2c(cc1O)C1c3ccc(O)c(O)c3OCC1(O)C2 (configuration not stated) | inactive |
| NC(CSCSCC(N)C(=O)O)C(=O)O (configuration not stated) | inactive |
| COc1cccc2c(C)cc(=O)[nH]c12 | inactive |
| CC(CC(O)C1OC1(C)C)[C@@H]1CCC2(C)C3=CCC4C(C)(C)C(=O)CCC4(C)C3CC[C@@]12C (some centres not stated) | inactive |
| CC(=O)O[C@@H]1CC(=O)[C@@]2(C)C(CC(=O)[C@]3(C)C2CC[C@@]2(C)[C@H](c4ccoc4)OC(=O)C4OC423)C1(C)C (some centres not stated) | inactive |
| CC(=O)Oc1ccc2c(c1C(C)C)CCC1C(C)(C)CCC[C@]21C (some centres not stated) | inactive |
| COc1ccc2c3c1OC1C(O)CC=C4C(C2)N(C)CCC431 (configuration not stated) | inactive |
| O=C(O)C1=C[C@@H](O)[C@@H](O)[C@H](O)C1 | inactive |
| O=c1c(O)c(-c2cc(O)c(O)c(O)c2)oc2cc(O)cc(O)c12 | inactive |
| CCCCC1C(=O)N(c2ccccc2)N(c2ccc(O)cc2)C1=O (configuration not stated) | inactive |
| CC(C)c1c(O)ccc2c1CCC1C(C)(C)CCC[C@]21C (some centres not stated) | active |
| CC1(C)O[C@H]2CC(=O)OC[C@]23[C@H]2CC[C@@]4(C)[C@H](c5ccoc5)OC(=O)[C@H]5O[C@]54[C@]2(C)C(=O)C[C@@H]13 | inactive |
| CC(C1OC(C)(C)C(O)C1O)[C@@H]1CC[C@]2(C)C3=CCC4C(C)(C)C(=O)CC[C@]4(C)C3CC[C@@]12C (some centres not stated) | inactive |
| OCC(O)C(O)C(O)C(O)C(O)CO (configuration not stated) | inactive |
| CC(=O)O[C@@H]1CC2C(C)(C)C(=O)C=C[C@]2(C)C2CC[C@@]3(C)[C@H](c4ccoc4)OC(=O)[C@H]4O[C@]43[C@@]21C (some centres not stated) | inactive |
| Cc1[nH]ccc2c1[nH]c1cc(=O)ccc12 | inactive |
| CC1(C)C(=O)C=C[C@@]2(C)C1CC(=O)[C@]1(C)C2CC[C@@]2(C)[C@H](c3ccoc3)OC(=O)[C@H]3O[C@]321 (some centres not stated) | inactive |
| CC(C)(O)[C@@H]1Cc2cc3ccc(=O)oc3cc2O1 | inactive |
| CN(C)c1nc(N)c(C(=O)N=C(N)N)nc1Cl | inactive |
| COc1cc(O)c2c(=O)c(O)c(-c3ccc(O)c(O)c3)oc2c1 | inactive |
